Molecular target: UniProt:P13612
Sequence (P13612 whole entry): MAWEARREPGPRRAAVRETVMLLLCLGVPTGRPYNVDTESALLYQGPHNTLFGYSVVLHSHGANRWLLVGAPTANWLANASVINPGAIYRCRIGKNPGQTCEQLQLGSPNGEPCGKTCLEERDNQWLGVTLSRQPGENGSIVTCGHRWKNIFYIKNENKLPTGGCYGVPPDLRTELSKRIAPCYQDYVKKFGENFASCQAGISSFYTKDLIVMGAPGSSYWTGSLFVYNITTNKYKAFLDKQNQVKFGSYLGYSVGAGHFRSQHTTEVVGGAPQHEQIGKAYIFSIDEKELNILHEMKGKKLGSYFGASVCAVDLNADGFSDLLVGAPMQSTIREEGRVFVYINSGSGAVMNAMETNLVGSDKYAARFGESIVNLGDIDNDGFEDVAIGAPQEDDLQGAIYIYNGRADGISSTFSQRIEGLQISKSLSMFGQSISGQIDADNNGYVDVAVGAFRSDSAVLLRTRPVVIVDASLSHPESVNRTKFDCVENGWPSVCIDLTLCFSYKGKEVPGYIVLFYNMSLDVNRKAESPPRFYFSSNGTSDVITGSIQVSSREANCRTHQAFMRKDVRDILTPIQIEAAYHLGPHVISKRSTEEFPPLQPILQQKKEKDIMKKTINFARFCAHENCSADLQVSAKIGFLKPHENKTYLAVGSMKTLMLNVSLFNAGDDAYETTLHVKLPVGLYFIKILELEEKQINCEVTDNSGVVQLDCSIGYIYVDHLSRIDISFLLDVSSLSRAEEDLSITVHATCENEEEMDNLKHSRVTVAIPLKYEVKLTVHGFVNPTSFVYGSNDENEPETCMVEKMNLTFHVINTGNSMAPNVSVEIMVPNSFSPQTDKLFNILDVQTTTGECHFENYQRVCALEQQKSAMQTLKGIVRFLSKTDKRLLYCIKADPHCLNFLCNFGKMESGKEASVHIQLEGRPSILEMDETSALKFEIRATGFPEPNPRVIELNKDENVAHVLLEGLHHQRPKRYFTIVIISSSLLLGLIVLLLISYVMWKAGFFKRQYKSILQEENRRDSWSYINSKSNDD
Test: Inhibition of VLA-4 binding to recombinant human VCAM using Ramos cell assay
Assay type: cell-based
REPORTED_PROPERTY: IC50 (nM)
Quick note: give the figure in nM, leave out the unit.

N[C@@H](Cc1ccc(O)cc1)C(=O)N[C@H]1CSSC[C@@H](C(=O)O)NC(=O)C2(CCCC2)CCCNC1=O    480

Could you tell me which IC50 is on file for `CC(=O)N[C@@H](Cc1ccc(O)cc1)C(=O)N[C@H]1CSSC[C@@H](C(=O)O)NC(=O)C2(CCCC2)CCNC1=O` ?
12

Could you tell me which IC50 is on file for `N[C@@H](Cc1ccc(O)cc1)C(=O)N[C@H]1CSSC[C@@H](C(=O)O)NC(=O)C2(CCCC2)CCNC1=O` ?
24
